Provide the reported IC50 of each item.
ASSAY SYSTEM: DRB3*0101 (Homo sapiens, UniProt P01903+P79483)
ASSAY METHOD TEXT: biochemical
Format: binding
Where no end group is shown, it is not given here.
Numeric only. Scale: µM

Request: I have this sequence here, GTILVKVEYKGEDAP [Envelope 316-330] , and I need its recorded IC50.
Response: 5.29

Request: Which IC50 value is on record for VTFKNAHAKKPEVVV [Envelope 236-250] ?
Response: 18.2

Request: Return reported IC50; argument: EGKVVQYENLKYTVI [Envelope 126-140]
Response: 2.07

Request: May I ask what IC50 has been recorded for TNTFVLKKEVSETQH [Envelope 301-315] ?
Response: 2.83

Request: Need IC50, item MRCVGVGNRDFVEGL [Envelope 1-15]
Response: 2.84

Request: Give the measured IC50 of TRGAVLTYNGKRLEP [NS3 53-67] .
Response: 3.29

Request: Report IC50 for LGSQEGAMHTALTGA [Envelope 251-265] please.
Response: 5.59

Request: Which IC50 is listed for ALTGATEIQNSGGTS [Envelope 261-275] ?
Response: 17.5

Request: Using the record for AILPEYGTLGLECSP [Envelope 171-185] , report its IC50.
Response: 12.6

Request: Which value of IC50 has been reported for LKKEVSETQHGTILV [Envelope 306-320] in the records?
Response: 12.1

---

Provide the reported IC50 of each item.
ASSAY SYSTEM: DRB4*0101 (Homo sapiens, UniProt P01903+P13762, G164S)
ASSAY METHOD TEXT: biochemical
Your answer should be a plain number; it is taken to be in nM.

Request: Look up IC50 for this molecule: CC[C@H](C)[C@H](NC(=O)[C@H](C)NC(=O)[C@H](C)NC(=O)[C@H](C)NC(=O)[C@@H](N)CCC(=O)O)C(=O)N[C@@H](Cc1ccccc1)C(=O)N[C@@H](CCSC)C(=O)N[C@H](C(=O)N[C@@H](C)C(=O)N[C@H](C(=O)N1CCC[C@H]1C(=O)N1CCC[C@H]1C(=O)NCC(=O)N[C@H](C(=O)N[C@@H](C)C(=O)O)[C@@H](C)O)[C@@H](C)O)[C@@H](C)O
Response: 9.2

Request: Value lookup for IC50; key = CSCC[C@H](NC(=O)[C@H](CC(C)C)NC(=O)[C@H](CCCNC(=N)N)NC(=O)[C@H](Cc1c[nH]cn1)NC(=O)[C@H](CC(=O)O)NC(=O)[C@H](CS)NC(=O)[C@H](CC(C)C)NC(=O)[C@H](CCC(N)=O)NC(=O)[C@@H](NC(=O)[C@H](Cc1ccc(O)cc1)NC(=O)[C@@H](NC(=O)[C@@H](N)CCC(=O)O)C(C)C)[C@@H](C)O)C(=O)N[C@@H](CO)C(=O)N[C@@H](C)C(=O)N[C@@H](C)C(=O)O
Response: 6150

Request: Find the recorded IC50 belonging to CC[C@H](C)[C@H](NC(=O)[C@H](CCC(=O)O)NC(=O)CNC(=O)[C@H](CCCNC(=N)N)NC(=O)[C@H](CCCCN)NC(=O)[C@H](CC(C)C)NC(=O)CNC(=O)[C@H](CCC(=O)O)NC(=O)[C@H](CCCCN)NC(=O)[C@H](C)NC(=O)[C@H](CCC(=O)O)NC(=O)[C@@H](N)[C@@H](C)O)C(=O)N[C@H](C(=O)N[C@@H](Cc1c[nH]cn1)C(=O)N[C@@H](Cc1c[nH]cn1)C(=O)N[C@@H](C)C(=O)N[C@H](C(=O)O)C(C)C)[C@@H](C)O and report it.
Response: 563

---

ASSAY SYSTEM: DRB5*0101 (Homo sapiens, UniProt P01903+Q30154)
ASSAY METHOD TEXT: biochemical
READOUT TYPE: pIC50
// scale note: pIC50 = -log10(conc_M); give the bare number

Request: Suppose we examine the compound CC[C@H](C)[C@H](NC(=O)[C@H](CC(C)C)NC(=O)[C@H](CO)NC(=O)[C@H](C)NC(=O)[C@H](CCCCN)NC(=O)[C@H](CCC(=O)O)NC(=O)[C@H](CC(C)C)NC(=O)[C@H](CCCCN)NC(=O)[C@H](Cc1c[nH]c2ccccc12)NC(=O)[C@@H](N)CO)C(=O)N[C@@H](CCC(=O)O)C(=O)N[C@H](C(=O)N[C@@H](CCCCN)C(=O)N[C@H](C(=O)N[C@@H](CS)C(=O)O)[C@@H](C)O)C(C)C ; what pIC50 value has been reported?
Response: 5.93

Request: // lookup pIC50 for CC[C@H](C)[C@H](NC(=O)[C@@H](NC(=O)[C@H](CCCCN)NC(=O)[C@@H](N)CCCCN)C(C)C)C(=O)N[C@@H](CCC(N)=O)C(=O)N[C@@H](CC(C)C)C(=O)N[C@@H](CO)C(=O)N[C@@H](CCCNC(=N)N)C(=O)N[C@@H](CCCCN)C(=O)N[C@H](C(=O)N[C@@H](Cc1ccccc1)C(=O)N[C@@H](CC(=O)O)C(=O)N[C@H](C(=O)N[C@@H](CCC(=O)O)C(=O)N[C@@H](Cc1ccc(O)cc1)C(=O)O)[C@@H](C)O)[C@@H](C)O
Response: 5.24

---

ASSAY SYSTEM: DRB1*1501 (Homo sapiens, UniProt P01903+P01911)
ASSAY METHOD TEXT: biochemical
READOUT TYPE: IC50 (µM)
Write the value in µM as a bare number.

Request: Item CC[C@H](C)[C@H](NC(=O)[C@H](C)NC(=O)[C@H](CC(N)=O)NC(=O)[C@H](CO)NC(=O)[C@H](C)NC(=O)[C@H](CC(C)C)NC(=O)[C@H](CCCNC(=N)N)NC(=O)[C@H](CC(C)C)NC(=O)[C@H](CC(=O)O)NC(=O)[C@H](CCCNC(=N)N)NC(=O)[C@@H](N)CCCNC(=N)N)C(=O)N[C@@H](CS)C(=O)N[C@@H](CO)C(=O)N[C@@H](C)C(=O)N[C@H](C(=O)N1CCC[C@H]1C(=O)N[C@H](C(=O)O)C(C)C)C(C)C with DRB1*1501 (Homo sapiens, UniProt P01903+P01911) - IC50?
Response: 0.021

---

ASSAY SYSTEM: DRB1*0802 (Homo sapiens, UniProt P01903+P01911, A100R/A103L/A169T/F76Y/H45Y/I96F/K41T/L162R/M171V/P40S/Q125H/Q178H/Q39Y/Q99D/R218S/R42G/S66Y/V115G/W38E)
ASSAY METHOD TEXT: biochemical
Assign IC50 to each entry below.
Kindly provide the numeric value in nM only, without the unit symbol.

Request: # IC50 lookup, item CC[C@H](C)[C@H](NC(=O)[C@H](C)NC(=O)[C@H](CC(N)=O)NC(=O)[C@H](CO)NC(=O)[C@H](C)NC(=O)[C@H](CC(C)C)NC(=O)[C@H](CCCNC(=N)N)NC(=O)[C@H](CC(C)C)NC(=O)[C@H](CC(=O)O)NC(=O)[C@H](CCCNC(=N)N)NC(=O)[C@@H](N)CCCNC(=N)N)C(=O)N[C@@H](CS)C(=O)N[C@@H](CO)C(=O)N[C@@H](C)C(=O)N[C@H](C(=O)N1CCC[C@H]1C(=O)N[C@H](C(=O)O)C(C)C)C(C)C
Response: 28

Request: I have this molecule here, CC[C@H](C)[C@H](NC(=O)[C@H](CC(C)C)NC(=O)[C@H](CC(N)=O)NC(=O)[C@H](Cc1ccc(O)cc1)NC(=O)[C@H](CC(N)=O)NC(=O)[C@@H]1CCCN1)C(=O)N[C@H](C(=O)N[C@@H](CCSC)C(=O)N[C@@H](CC(=O)O)C(=O)N[C@@H](CCC(=O)O)C(=O)N[C@@H](C)C(=O)N[C@@H](Cc1c[nH]cn1)C(=O)N[C@@H](Cc1ccccc1)C(=O)N[C@H](C(=O)N[C@@H](CC(=O)O)C(=O)O)[C@@H](C)O)[C@@H](C)CC , and I need its recorded IC50.
Response: 396

Request: Endpoint output: IC50 of CSCC[C@H](NC(=O)[C@H](CC(C)C)NC(=O)[C@H](CCCNC(=N)N)NC(=O)[C@H](Cc1c[nH]cn1)NC(=O)[C@H](CC(=O)O)NC(=O)[C@H](CS)NC(=O)[C@H](CC(C)C)NC(=O)[C@H](CCC(N)=O)NC(=O)[C@@H](NC(=O)[C@H](Cc1ccc(O)cc1)NC(=O)[C@@H](NC(=O)[C@@H](N)CCC(=O)O)C(C)C)[C@@H](C)O)C(=O)N[C@@H](CO)C(=O)N[C@@H](C)C(=O)N[C@@H](C)C(=O)O . Value?
Response: 900

Request: // returns reported IC50 for input CC[C@H](C)[C@H](NC(=O)[C@H](Cc1ccc(O)cc1)NC(=O)CNC(=O)[C@H](CC(C)C)NC(=O)[C@H](CCCCN)NC(=O)[C@H](Cc1c[nH]cn1)NC(=O)[C@H](CC(C)C)NC(=O)CNC(=O)[C@H](CCC(=O)O)NC(=O)CNC(=O)[C@H](CCC(=O)O)NC(=O)[C@@H](NC(=O)CNC(=O)[C@H](CO)NC(=O)[C@H](Cc1ccc(O)cc1)NC(=O)[C@H](CO)NC(=O)[C@@H](N)CC(N)=O)C(C)C)C(=O)O
Response: 836
